Value source: ChEMBL document CHEMBL3885861

species: Rattus norvegicus; assay: Open TG-GATES - Regimen: Daily Repeat; assay type: toxicity, organism-based, Sprague-Dawley; parameters: regimen Daily Repeat, gender Male, age 6 weeks; settings: in vivo, po, 300 mg/kg, […], tissue Blood, route gavage, dose level Middle, time 7 day
This section presents molecules with their documented Neu values.
Please respond with the number in % and leave the unit unwritten.

// below: answered molecules
[[record]]
molecule = "NC(N)=Nc1nc(CSCCC(N)=NS(N)(=O)=O)cs1"
unit_info = "%"
readout_number = 16

[[record]]
molecule = "COc1ccc2[nH]c([S+]([O-])Cc3ncc(C)c(OC)c3C)nc2c1 (stereo not given)"
unit_info = "%"
readout_number = 17.4

[[record]]
molecule = "CCOC(=O)CCC(=O)O[C@H]1[C@H](O[C@@H]2[C@@H](C)[C@H](O[C@H]3C[C@@](C)(OC)[C@@H](O)[C@H](C)O3)[C@@H](C)C(=O)O[C@H](CC)[C@@](C)(O)[C@H](O)[C@@H](C)C(=O)[C@H](C)C[C@@]2(C)O)O[C@H](C)C[C@@H]1N(C)C [ERYTHROMYCIN ETHYLSUCCINATE]"
unit_info = "%"
readout_number = 11.2

[[record]]
molecule = "COC1=CC(=O)C[C@@H](C)[C@]12Oc1c(Cl)c(OC)cc(OC)c1C2=O"
unit_info = "%"
readout_number = 18.6


// below: Neu requested for another molecule
stdin: Returns the measured Neu for the input molecule. Input: CCOc1ccc(NC(=O)CC(C)O)cc1 (stereo not given)
stdout: 21.6
